Taken from paper PMC8809517.

Molecular target: T1, GFP-9S library array, motif 4 ND N98M;D124E (synthetic construct, N98M;D124E)
T1 chain: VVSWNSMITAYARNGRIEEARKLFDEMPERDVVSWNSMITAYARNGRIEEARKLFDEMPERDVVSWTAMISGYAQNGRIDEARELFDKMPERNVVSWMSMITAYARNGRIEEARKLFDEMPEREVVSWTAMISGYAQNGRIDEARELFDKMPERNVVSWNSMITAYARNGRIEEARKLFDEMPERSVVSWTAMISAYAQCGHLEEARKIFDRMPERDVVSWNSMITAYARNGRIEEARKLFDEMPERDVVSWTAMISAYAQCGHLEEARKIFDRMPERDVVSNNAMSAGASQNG
Experiment: high-throughput RNA pulldown from lysate on Ni-NTA beads; HRP: 50 mM Tris pH 8, 150 mM NaCl, 1 mM beta-mercaptoethanol, 50 ug/ml BSA, 3 ug/ml yeast RNA, 0.5% heparin; ITC and FP: Tris pH 8, 200 mM KCl, 5% glycerol; MST: 50 mM Tris pH 8, 200 mM NaCl, 1 mM DTT, BSA, heparin, 0.05% Tween 20
Settings: tags: N-terminal His-eGFP; label: 5' IRDye 800CW
readout_type: Kd (nM)
Dear colleague, please return just the value in nM, with no unit written.

| binder | recorded_value |
| --- | --- |
| AUUAUACGUGA (ssRNA) [IR-rpoA-U] | 158 |

Ask: Endpoint output: Kd of AUUAAACGUGA (ssRNA) [IR-rpoA-A] . Value?
Reply: 264
